target: A. fumigatus/SIII (S. cerevisiae strain expressing A. fumigatus eEF2) (Aspergillus fumigatus); assay: SwordIII growth inhibition assay, A. fumigatus/SIII strain; format: cell-based; conditions: SC medium, 29° C., approximately 16 hours, read-out: IC50 (μg/ml)
Sequence (Q4X0G7 1-839, change not shown): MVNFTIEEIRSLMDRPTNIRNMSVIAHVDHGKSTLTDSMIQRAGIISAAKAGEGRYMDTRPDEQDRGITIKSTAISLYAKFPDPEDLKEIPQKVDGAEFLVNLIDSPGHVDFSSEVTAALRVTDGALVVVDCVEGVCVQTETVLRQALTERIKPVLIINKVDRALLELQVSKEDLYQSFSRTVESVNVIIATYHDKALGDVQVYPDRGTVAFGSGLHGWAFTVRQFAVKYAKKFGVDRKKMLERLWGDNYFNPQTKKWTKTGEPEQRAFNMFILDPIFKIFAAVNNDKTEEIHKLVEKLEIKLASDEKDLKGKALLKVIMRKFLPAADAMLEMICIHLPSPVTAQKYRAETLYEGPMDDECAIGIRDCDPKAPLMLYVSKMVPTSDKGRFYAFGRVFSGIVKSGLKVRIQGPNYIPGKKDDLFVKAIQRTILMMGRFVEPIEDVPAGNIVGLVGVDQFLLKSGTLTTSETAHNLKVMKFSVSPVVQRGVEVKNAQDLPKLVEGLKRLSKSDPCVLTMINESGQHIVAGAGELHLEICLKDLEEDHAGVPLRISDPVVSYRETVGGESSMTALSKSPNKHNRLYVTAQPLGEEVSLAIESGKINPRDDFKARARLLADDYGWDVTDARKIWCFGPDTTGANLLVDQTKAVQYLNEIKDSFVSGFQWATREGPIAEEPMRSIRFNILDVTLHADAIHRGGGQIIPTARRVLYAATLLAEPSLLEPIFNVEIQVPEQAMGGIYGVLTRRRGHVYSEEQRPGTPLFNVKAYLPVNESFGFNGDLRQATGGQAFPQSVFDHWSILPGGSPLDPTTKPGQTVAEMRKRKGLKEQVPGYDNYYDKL
pIC50: −log10 of the molar value.
Measured Property: pIC50

Specify pIC50 for CO[C@H]1[C@@H](O)[C@H](O)[C@H](OC[C@@]23C[C@@H]4[C@H](C)CC[C@H]4[C@@]4(C=O)CC2C=C(C(C)C)[C@@]34C(=O)O)O[C@@H]1C and stop.
< 3.69

----------
target: C. krusei/SIII (S. cerevisiae strain expressing C. krusei eEF2) (Pichia kudriavzevii); test: SwordIII growth inhibition assay, C. krusei/SIII strain; format: cell-based; details: read-out: IC50 (μg/ml), SC medium, 29° C., approximately 16 hours
Sequence (A0A2U9R6P9 1-830, change not shown): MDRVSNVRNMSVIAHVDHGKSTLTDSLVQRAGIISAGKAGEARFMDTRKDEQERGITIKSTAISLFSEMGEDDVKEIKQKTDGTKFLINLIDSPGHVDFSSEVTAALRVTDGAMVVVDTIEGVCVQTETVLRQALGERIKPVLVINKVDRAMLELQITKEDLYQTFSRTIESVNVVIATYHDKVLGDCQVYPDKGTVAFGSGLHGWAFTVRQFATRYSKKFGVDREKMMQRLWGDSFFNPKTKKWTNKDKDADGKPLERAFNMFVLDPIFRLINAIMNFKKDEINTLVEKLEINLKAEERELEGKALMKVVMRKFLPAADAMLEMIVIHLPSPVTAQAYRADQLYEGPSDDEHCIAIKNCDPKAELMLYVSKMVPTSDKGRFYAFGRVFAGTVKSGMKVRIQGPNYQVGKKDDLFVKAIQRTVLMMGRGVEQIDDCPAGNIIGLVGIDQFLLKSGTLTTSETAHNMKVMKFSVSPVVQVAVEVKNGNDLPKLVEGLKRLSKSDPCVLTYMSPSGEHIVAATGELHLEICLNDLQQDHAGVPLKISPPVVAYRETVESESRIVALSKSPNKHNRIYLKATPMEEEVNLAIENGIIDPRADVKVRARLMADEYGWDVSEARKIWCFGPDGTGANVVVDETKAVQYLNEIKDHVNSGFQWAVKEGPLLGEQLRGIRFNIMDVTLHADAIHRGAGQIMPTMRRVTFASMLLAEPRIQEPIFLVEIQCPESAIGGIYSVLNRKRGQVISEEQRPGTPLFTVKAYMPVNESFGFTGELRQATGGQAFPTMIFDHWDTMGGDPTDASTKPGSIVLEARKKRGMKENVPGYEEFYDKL
Measured Property: IC50 (µM)
Express it in µM; write the number only.

Specify IC50 for COC1C(C)OC(OCC23CC4C(C)CCC4C4(C=O)CC2C=C(C(C)C)C43C(=O)O)C(O)C12OC(=O)C(CCCCCCCC(=O)O)O2 (stereo not shown) and stop.
21.7
